Taken from patent EP3771714A1.

# methodNotes: logP determination by HPLC on reversed-phase (C18) columns, OECD Guideline 117
# Type: physicochemical
# assayContext: pH 7.8, LogP-Wert
The reader will find reported chromatographic logP values listed item by item below.

{"compound": "NC(=S)N=c1ccccn1-c1ccc(C(F)F)nc1 [VII-2]", "chromatographic logP": 0.7}
{"compound": "CCOC(=O)NC(=S)N=c1ccccn1-c1ccc(C(F)F)nc1 [VI-2]", "chromatographic logP": 1.28}
{"compound": "CCOC(=O)NC(=S)N=c1ccccn1-c1ccc(C(F)(F)F)nc1 [VI-1]", "chromatographic logP": 1.71}

---

# methodNotes: logP determination by HPLC on reversed-phase (C18) columns, OECD Guideline 117
# Type: physicochemical
# assayContext: LogP-Wert
The reader will find reported chromatographic logP values listed item by item below.

{"molecule": "CSc1cccc[n+]1-c1ccc(C(F)F)nc1 [III-2]", "chromatographic logP": 0.04}
{"molecule": "FC(F)c1ccc(-n2ccccc2=S)cn1 [II-2]", "chromatographic logP": 1.18}

---

# methodNotes: logP determination by HPLC on reversed-phase (C18) columns, OECD Guideline 117
# Type: physicochemical
# assayContext: reversed-phase (C18) HPLC column, HPLC-MS (ESI-positiv); acidic or neutral range not given; read-out: LogP-Wert

{"smilesStructure": "N=c1ccccn1-c1ccc(C(F)(F)F)nc1", "chromatographic logP": 2.17}
{"smilesStructure": "CSc1cccc[n+]1-c1ccc(C(F)(F)F)nc1", "chromatographic logP": 0.57}

---

# methodNotes: logP determination by HPLC on reversed-phase (C18) columns, OECD Guideline 117
# Type: physicochemical
# assayContext: pH 2.7, LogP-Wert (HCOOH)
The reader will find reported chromatographic logP values listed item by item below.

{"smilesStructure": "N#CC1(c2csc(N=c3ccccn3-c3ccc(C(F)(F)F)nc3)n2)CC1", "chromatographic logP": 2.39}
{"smilesStructure": "CC(C)(C)c1csc(N=c2ccccn2-c2ccc(C(F)(F)F)nc2)n1", "chromatographic logP": 1.47}
{"smilesStructure": "FC(F)(F)c1ccc(-n2ccccc2=Nc2nc(C3(F)CC3)cs2)cn1", "chromatographic logP": 2.04}
{"smilesStructure": "FC(F)(F)c1ccc(-n2ccccc2=Nc2nc(C(F)(F)C(F)(F)F)cs2)cn1", "chromatographic logP": 4.03}
{"smilesStructure": "CCc1csc(N=c2ccccn2-c2ccc(C(F)(F)F)nc2)n1", "chromatographic logP": 1.13}
{"smilesStructure": "FC(F)(F)c1ccc(-n2ccccc2=Nc2nc(C3CC3)cs2)cn1", "chromatographic logP": 1.34}
